# tested-system: FLAP (human ALOX5AP expressed in COS-7 cell membranes) (Homo sapiens (Human), UniProt P20292)
# Sequence (P20292 whole entry): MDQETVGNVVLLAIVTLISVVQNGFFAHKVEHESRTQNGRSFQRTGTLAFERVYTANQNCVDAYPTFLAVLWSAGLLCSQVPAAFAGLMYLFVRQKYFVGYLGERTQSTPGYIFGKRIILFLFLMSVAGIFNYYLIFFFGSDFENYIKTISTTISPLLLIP
endpoint: IC50 (µM)

Worked cases, IC50 given:
INSERT INTO results (molecule, measured) VALUES
  ('Cc1cc(-c2ccc(C(=O)C3CCCCC3C(=O)Nc3cnn(C)c3C#N)cc2)[nH]n1 (racemic)', 0.086),
  ('Cc1cc(-c2ccc(C(=O)C3CCCCC3C(=O)Nc3nonc3C(N)=O)c(F)c2)[nH]n1 (single isomer, unassigned)', 0.07);

A = O=C(Nc1nc(C2CC2)ns1)C1CCCCC1C(=O)c1ccc(-c2ccn[nH]2)cc1 (racemic)
B = Cc1cc(-c2ccc(C(=O)[C@@H]3CCCC[C@H]3C(=O)Nc3cnn4c3C(=O)N(C)CC4)cc2)n[nH]1
Prompt: Larger number for IC50: A , or B ? Answer by quoting the chosen item's label.
Response: A
